Tested on: Salmonella typhimurium
Assay: Antimicrobial activity against Salmonella Typhimurium ATCC 14028 assessed as inhibition of planktonic growth at 10 uM at 25 degC after 24 hrs
Type: functional, organism-based
Conditions: Salmonella enterica subsp. enterica serovar Typhimurium
Active and inactive are the calls of the source. The calls are words filed in the database; no cut-off is given here.
QUANTITY NAME: inhibition

Example results:
CCCCCn1c(-c2ccc(Cl)cc2)cnc1N ... inactive
CCCCCCCC[n+]1c(-c2cccc(Br)c2)cn2cccnc21.[O-][Cl+3]([O-])([O-])[O-] ... inactive
Nc1ncc(-c2ccc(-c3ccccc3)cc2)n1C1CCCCC1 ... inactive
CCCCCCCCCCCCCn1c(-c2ccccc2)cnc1N ... Active
Nc1ncc(-c2ccccc2)n1C1CCCCCCCCCCC1 ... inactive
CCCCCCn1c(-c2ccc(-c3ccccc3)cc2)cnc1N ... Active

Please look at the following compound next.
Query: Any idea what its inhibition is? The compound is CCCCCCCCCCCCn1c(-c2ccc(Cl)cc2)cnc1N
Response: inactive

* * *

Tested on: Salmonella typhimurium
Experiment: Antimicrobial activity against Salmonella Typhimurium ATCC 14028 assessed as inhibition of planktonic growth at 10 uM at 25 degC after 24 hrs
Assay type: functional, organism-based
Conditions: Salmonella enterica subsp. enterica serovar Typhimurium
The source made the active and inactive calls. The rule behind the calls is not given here.
QUANTITY NAME: inhibition

Nc1nc(-c2ccc(Cl)cc2)c(-c2ccc(C(F)(F)F)cc2)[nH]1 ... Active
Nc1ncc(-c2ccc(Cl)cc2)n1C1CCC1 ... inactive
Nc1nc(-c2ccc(F)cc2)c(-c2ccc(F)cc2)[nH]1 ... inactive
CCn1c(-c2ccc(Cl)cc2)cnc1N ... inactive
CCCCCCCCn1c(-c2cccc3ccccc23)cnc1N ... inactive

Query: // inhibition lookup, key: CCCCCCCCn1c(-c2ccc(OC)cc2)cnc1N
Response: inactive

Query: Fill in: inhibition of Cc1ccc(-c2[nH]c(N)nc2-c2ccc(Cl)cc2)cc1 is ___
Response: Active

Query: Endpoint output: inhibition of CCCCCCCn1c(-c2ccc(Cl)cc2)cnc1N . Value?
Response: Active

Query: Sample CCCCCCCCn1c(-c2ccccc2)cnc1N — what was its inhibition?
Response: inactive

Query: Given O=[N+]([O-])c1ccc(-c2cn3cccnc3[n+]2C2CCCCCCCCCCC2)cc1.[O-][Cl+3]([O-])([O-])[O-] , state its recorded inhibition.
Response: inactive

* * *

Test system: Salmonella typhimurium
Test: Antimicrobial activity against Salmonella Typhimurium ATCC 14028 assessed as inhibition of planktonic growth at 20 uM at 25 degC after 24 hrs
Assay type: functional, organism-based
Settings: Salmonella enterica subsp. enterica serovar Typhimurium
The source made the active and inactive calls. No cut-off for these calls is given here.
Outcomes you can answer with include only these: 1.0 (active), 0.0 (inactive)

Query: Given CCCCCCCCn1c(-c2cccc(Br)c2)cnc1N , state the outcome it received in this test.
Response: 1.0

Query: Outcome logged for Nc1nc(-c2ccc(Cl)cc2)c(-c2ccc(C(F)(F)F)cc2)[nH]1 in this assay:
Response: 1.0

Query: # outcome recorded in this test, key = CCCCCCCCCCn1c(-c2ccc(-c3ccccc3)cc2)cnc1N
Response: 0.0

Query: Just curious, what result did Nc1ncc(-c2ccc(-c3ccccc3)cc2)n1C1CCCCC1 get here?
Response: 1.0

Query: Which result was noted for this compound in the test: CCCCCCn1c(-c2ccc(-c3ccccc3)cc2)cnc1N
Response: 1.0

Query: Which result was noted for this compound in the test: CCCCCCCC[n+]1c(-c2ccc(OC)cc2)cn2cccnc21.[O-][Cl+3]([O-])([O-])[O-]
Response: 1.0

Query: Assay result, entry Nc1ncc(-c2ccc(-c3ccccc3)cc2)n1C1CCCCCCC1 — outcome?
Response: 1.0

Query: Record lookup: outcome of this test for CCCCCCCCCn1c(-c2ccccc2)cnc1N ?
Response: 1.0

Query: I would be grateful if you could indicate the recorded call for Nc1ncc(-c2ccc(Cl)cc2)n1C1CCCCCCC1 .
Response: 1.0

Query: recorded result category for CCCCCCCCCCCCn1c(-c2ccccc2)cnc1N in this test
Response: 1.0

Query: Record lookup: outcome of this test for CCCCCCCCCCCCn1c(-c2ccc(Cl)cc2)cnc1N ?
Response: 0.0

* * *

Assign pIC50 to each entry below.
System: Salmonella typhimurium
Experiment: Antibiofilm activity in Salmonella Typhimurium ATCC 14028 assessed as inhibition of biofilm formation at 25 degC after 24 hrs
Assay type: functional, organism-based, Salmonella enterica subsp. enterica serovar Typhimurium
Details: Salmonella enterica, ATCC 14028, 24 h
Scale: negative log10 of molar concentration, which is what pIC50 denotes.

Query: Tell me the measured pIC50 of CCCCCCCCCCn1c(-c2ccccc2)cnc1N , please.
Response: 5.21

Query: Query (molecule): Nc1nc(-c2ccc(Cl)cc2)c(-c2cc(F)cc(F)c2)[nH]1 ; field requested: pIC50
Response: 4.14

Query: Bench note: what pIC50 did CCCCn1c(-c2ccc(F)cc2)cnc1N show?
Response: 4.25

Query: // pIC50 lookup, key: CCCCCCCCn1c(-c2ccc(F)cc2)cnc1N
Response: 4.97

Query: State the recorded pIC50 for this entry: Nc1ncc(-c2ccccc2)n1Cc1ccc2c(c1)OCO2
Response: 4.01

Query: Entry under review: C[n+]1c(-c2cccc([N+](=O)[O-])c2)cn2cccnc21.[O-][Cl+3]([O-])([O-])[O-] . Reported pIC50?
Response: 3.37

Query: Look up pIC50: Cc1ccc(-c2cnc(N)n2C)cc1
Response: 4.21

Query: GET /values?readout=pIC50&item= CCCCCCCCCCCCn1c(-c2ccccc2)cnc1N
Response: 5.15

Query: Quick check: pIC50 of Nc1ncc(-c2ccc(F)cc2)n1Cc1ccccc1 ?
Response: 4.43

Query: Recorded pIC50 of O=[N+]([O-])c1ccc(-c2cn3cccnc3[n+]2Cc2ccccc2)cc1.[O-][Cl+3]([O-])([O-])[O-] , please.
Response: 3.77

Query: For the molecule shown here, CCCCn1c(-c2ccc(Br)cc2)cnc1N , give the reported pIC50.
Response: 4.79

Query: // returns reported pIC50 for input CCCCCCCCCCn1c(-c2ccc(Cl)cc2)cnc1N
Response: 5.39

Query: Fill in: pIC50 of Nc1nc(-c2ccc(F)cc2)c(C(=O)Nc2ccccc2)[nH]1 is ___
Response: 3.74

Query: Can you look up the measured pIC50 of Nc1ncc(-c2ccc(-c3ccccc3)cc2)n1C1CCCCC1 for me?
Response: 4.90

Query: What value of measured pIC50 is listed for CCCCCCCCn1c(-c2ccc(-c3ccccc3)cc2)cnc1N ?
Response: 5.48

Query: # lookup: pIC50 of CCCCCCCC[n+]1c(-c2ccc(F)cc2)cn2cccnc21.[O-][Cl+3]([O-])([O-])[O-]
Response: 4.45

Query: Given the molecule Nc1ncc(-c2ccccc2)n1C1CCC1 , what is its reported pIC50?
Response: 3.93

Query: So what does the record say about pIC50 for CCn1c(-c2ccc(-c3ccccc3)cc2)cnc1N ?
Response: 4.85

Query: Item Nc1ncc(-c2ccc(Br)cc2)n1Cc1ccccc1 has what recorded pIC50?
Response: 4.13

Query: I am curious: what pIC50 value has been reported for Nc1ncc(-c2ccc(-c3ccccc3)cc2)n1C1CCCCCC1 ?
Response: 4.90

Query: Look up pIC50: Nc1ncc(-c2ccc(F)cc2)[nH]1
Response: 4.07

Query: Return reported pIC50; argument: CCCCCCCC[n+]1c(-c2cccc3ccccc23)cn2cccnc21.[O-][Cl+3]([O-])([O-])[O-]
Response: 5.22

Query: Looking for the measured pIC50 of CC(C)n1c(-c2ccc([N+](=O)[O-])cc2)cnc1N , can you help?
Response: 3.44

Query: Recorded pIC50 of CCCCCCCCCn1c(-c2ccc(Cl)cc2)cnc1N , please.
Response: 5.40

Query: Would you kindly share the measured pIC50 for Cc1ccc(-c2cnc(N)[nH]2)cc1 ?
Response: 4.11

Query: For the molecule Nc1ncc(-c2ccccc2)n1C1CCCCCC1 , what pIC50 is on record?
Response: 4.57

Query: Given the molecule CCCCCCCCn1c(-c2ccccc2)cnc1N , what is its reported pIC50?
Response: 4.92

Query: Query (molecule): CCCCCCCC[n+]1c(-c2ccc(OC)cc2)cn2cccnc21.[O-][Cl+3]([O-])([O-])[O-] ; field requested: pIC50
Response: 4.46

Query: I'd like to know its pIC50. The molecule in question is Nc1ncc(-c2ccc(Cl)cc2)n1C1CC1
Response: 4.26

Query: Which pIC50 is listed for CCCCCCCCCCCCCn1c(-c2ccccc2)cnc1N ?
Response: 5.22

Query: Look at this molecule and give its reported pIC50. Nc1nc(-c2ccccc2)c(-c2ccc(Cl)cc2)[nH]1
Response: 4.33

Query: Look up pIC50 for this molecule: CCCCCCCC[n+]1c(-c2ccc(S(C)(=O)=O)cc2)cn2cccnc21.[O-][Cl+3]([O-])([O-])[O-]
Response: 4.09

Query: Return reported pIC50; argument: COc1ccc(-c2[nH]c(N)nc2-c2ccccc2)cc1
Response: 4.11

Query: Which pIC50 is listed for Cn1c(-c2ccccc2)cnc1N ?
Response: 3.37

Query: Bench note: what pIC50 did Cn1c(-c2ccc(Cl)cc2)cnc1N show?
Response: 3.97

Query: # input molecule: CCCCCCCn1c(-c2ccc(Cl)cc2)cnc1N ; wanted: its pIC50
Response: 5.02

Query: # query: pIC50 of entry CCCCCCCC[n+]1c(-c2ccc(F)c(F)c2)cn2cccnc21.[O-][Cl+3]([O-])([O-])[O-]
Response: 5.42
